Tested on: SARS-CoV-2 Omicron BA.5 variant
Experiment: Antiviral activity against SARS-CoV-2 Omicron BA.5 in HEK293T-hACE2-TMPRSS2 cells (qRT-PCR)
Format: cell-based
Conditions: Severe acute respiratory syndrome coronavirus 2, 24 h; read-out: EC50 mean ± sd, HEK293T-ACE2-T2, Omicron BA.5
Could you please report measured pEC50 for the items listed next?
Scale explanation: pEC50 corresponds to minus log10 of a concentration expressed in moles per litre.

Look up and report measured pEC50 for this entry: N#C[C@@]1(c2ccc3c(N)ncnn23)O[C@H](CO)[C@@H](O)[C@H]1O [GS-441524] 6.12

State, in one line, measured pEC50 of [2H]c1cc([C@]2(C#N)O[C@H](CO)[C@@H](O)[C@H]2O)n2ncnc(N)c12 [X1] 6.35

====

System: SARS-CoV-2 Delta variant
Assay: Antiviral activity against SARS-CoV-2 Delta in Vero E6 cells (viral RNA copies, qRT-PCR)
Assay type: cell-based
Conditions: Severe acute respiratory syndrome coronavirus 2, Vero C1008, 24 h; read-out: EC50 mean ± sd, Vero E6, Delta
Field: EC50. Provide a value for each of the molecules that follow.
// return numeric value only (unit: nM, not printed)

Provide measured EC50 value, entry: [2H]c1cc([C@]2(C#N)O[C@H](CO)[C@@H](O)[C@H]2O)n2ncnc(N)c12 [X1] 830

Retrieve EC50 measured for N#C[C@@]1(c2ccc3c(N)ncnn23)O[C@H](CO)[C@@H](O)[C@H]1O [GS-441524] and print it. 610

====

Test system: SARS-CoV-2 Omicron BA.1 variant
Test: Antiviral activity against SARS-CoV-2 Omicron BA.1 in Vero E6 cells (qRT-PCR)
Format: cell-based
Conditions: Severe acute respiratory syndrome coronavirus 2, Vero C1008, 24 h; read-out: EC50 mean ± sd, Vero E6, Omicron BA.1
observation type: pEC50
Scale: negative log10 of molar concentration, which is what pEC50 denotes.

Give the value of pEC50 reported for the following: `N#C[C@@]1(c2ccc3c(N)ncnn23)O[C@H](CO)[C@@H](O)[C@H]1O` 6.55

Read the entry `[2H]c1cc([C@]2(C#N)O[C@H](CO)[C@@H](O)[C@H]2O)n2ncnc(N)c12` and write its reported pEC50. 6.52
